Tested on: MDA-MB-231 breast carcinoma cells
Experiment: cell proliferation assay (Cell-Titer-Glo), MDA-MB-231
Format: cell-based
Settings: Homo sapiens, Table 10, 96 hours, read-out: IC50 MDA-MB-231 (inhibit cell growth to 50% of untreated)
quantity-name: pIC50
Numbers only, as −log10 of the molar value.

Form field: pIC50 recorded for CC(=O)NS(=O)(=O)c1ccc(NC(=S)N2CCN(c3ncnc4[nH]c5cc(C(F)(F)F)c(Cl)cc5c34)CC2)cc1 with MDA-MB-231 breast carcinoma cells (enter value)
4.69

---

Tested on: Panc-1 (pancreas)
Assay: in vitro cytotoxicity assay (Cell-Titer-Glo), Panc-1
Assay type: cell-based
Settings: Homo sapiens, PANC-1, 96 h; Table 9; 4 days; read-out: IC50 Panc-1
quantity-name: IC50 (µM)
Give bare numbers, in µM.

Would you please look over these solved cases?
Item COc1ccc2c(c1)[nH]c1ncnc(N3CCN(C(=S)Nc4ccc(S(=O)(=O)Nc5ccc(F)cc5)cc4)CC3)c12 has what recorded IC50?
10.7

Item Cc1ccc(NS(=O)(=O)c2ccc(NC(=S)N3CCN(c4ncnc5[nH]c6cc(Cl)c(N7CCOCC7)cc6c45)CC3)cc2)cc1 has what recorded IC50?
85.2

---
Item COc1cc2[nH]c3ncnc(N4CCN(C(=S)Nc5ccc(S(=O)(=O)Nc6ccc(F)cc6)cc5)CC4)c3c2cc1OC has what recorded IC50?
22.3

---

Test system: HT-29 (colon)
Assay: in vitro cytotoxicity assay (Cell-Titer-Glo), HT-29
Type: cell-based
Settings: Homo sapiens, HT-29, 96 h; Example 20; 4 days; read-out: Cell-based IC50 values HT-29
quantity-name: pIC50
One number for each entry, as −log10 of the molar value.

Would you please look over these solved cases?
Item COc1cc2[nH]c3ncnc(N4CCN(C(=S)Nc5ccc(NC(C)=O)cc5)CC4)c3c2cc1OC [Compound 1-42] has what recorded pIC50?
3.85

Item COc1cc2[nH]c3ncnc(N4CCN(C(=S)Nc5ccc(S(=O)(=O)N6CCOCC6)cc5)CC4)c3c2cc1OC [Compound 1-26] has what recorded pIC50?
3.75

For every item below, please supply its pIC50.
1. CC(=O)NS(=O)(=O)c1ccc(NC(=S)N2CCN(c3ncnc4[nH]c5ccc(Cl)cc5c34)CC2)cc1 [Compound 1-3]
2. COc1cc2[nH]c3ncnc(N4CCN(C(=S)Nc5ccc(S(C)(=O)=O)cc5)CC4)c3c2cc1OC [Compound 1-115]
3. CC(=O)NS(=O)(=O)c1ccc(NC(=S)N2CCN(c3ncnc4[nH]c5cc(C(F)(F)F)c(Cl)cc5c34)CC2)cc1 [Compound 1-1]

[4.53, 4.01, 5.30]

For every item below, please supply its pIC50.
1. CC(=O)NS(=O)(=O)c1ccc(NC(=S)N2CCN(c3ncnc4[nH]c5cc(F)ccc5c34)CC2)cc1 [Compound 1-4]
2. COc1cc2[nH]c3ncnc(N4CCN(C(=S)Nc5ccc(NC(=O)C6CC6)cc5)CC4)c3c2cc1OC [Compound 1-34]
3. COc1cc2c(cc1O)[nH]c1ncnc(N3CCN(C(=S)Nc4ccc(S(=O)(=O)NC(C)=O)cc4)CC3)c12 [Compound 1-8]

1: 3.99; 2: 3.86; 3: 4.56

Item COc1cc2[nH]c3ncnc(N4CCN(C(=S)Nc5ccc(S(=O)(=O)NC(C)=O)cc5)CC4)c3c2cc1OC [Compound 1-2] has what recorded pIC50?
4.03

---

Field: IC50. Provide a value for each of the compounds that follow.
Tested on: Granta-4 lymphoma cell line
Assay: lymphoma cell number reduction, Granta-4
Type: cell-based
Conditions: 48 hours; read-out: IC50 Values Granta-4, single agent
Numbers only, in nM.

Item COc1cc2[nH]c3ncnc(N4CCN(C(=S)Nc5ccc(S(=O)(=O)Nc6ccc(F)cc6)cc5)CC4)c3c2cc1OC has what recorded IC50?
2040

Next compound, IC50 to be filled in.
Item CC(=O)O[C@H]1C(=O)[C@@]2(C)[C@H]([C@H](OC(=O)c3ccccc3)[C@]3(O)C[C@H](OC(=O)[C@H](O)[C@@H](NC(=O)c4ccccc4)c4ccccc4)C(C)=C1C3(C)C)[C@]1(OC(C)=O)CO[C@@H]1C[C@@H]2O [Taxol ®, reference compound] has what recorded IC50?
301

---

Test system: PC-3 (prostate)
Assay: in vitro cytotoxicity assay (Cell-Titer-Glo), PC-3
Format: cell-based
Details: 96 h; Example 20; 4 days; read-out: Cell-based IC50 values PC-3
Excerpt: Briefly, tumor cell lines used were purchased from the American Type Culture Collection, and are identified as follows: Panc-1 (pancreas), MiaPaCa-2 (pancreas), MCF-7 (breast), HT-29 (colon), U2-OS (osteosarcoma), OVCAR-3 (ovary), HepG2 (hepatocellular carcinoma) and TT (medullary thyroid), PC-3 (prostate) and A549 (lung). The assay utilized the Cell-Titer-Glo Non-Radioactive Cell Proliferation Assay (Promega Corp., Madison, Wis.). […]
quantity-name: IC50 (µM)
Answers are plain numbers, in µM.

Would you please look over these solved cases?
Item COc1cc2[nH]c3ncnc(N4CCN(C(=S)Nc5ccc(S(N)(=O)=O)cc5)CC4)c3c2cc1OC [Compound 1-107] has what recorded IC50?
2.33

Item CC(=O)NS(=O)(=O)c1ccc(NC(=S)N2CCN(c3ncnc4[nH]c5ccc(Cl)cc5c34)CC2)cc1 [Compound 1-3] has what recorded IC50?
47.3

Item COc1cc2[nH]c3ncnc(N4CCN(C(=S)Nc5ccc(S(=O)(=O)N6CCOCC6)cc5)CC4)c3c2cc1OC [Compound 1-26] has what recorded IC50?
22.3

Item CC(=O)NS(=O)(=O)c1ccc(NC(=S)N2CCN(c3ncnc4[nH]c5cc(C(F)(F)F)c(Cl)cc5c34)CC2)cc1 [Compound 1-1] has what recorded IC50?
52.3

Item COc1cc2[nH]c3ncnc(N4CCN(C(=S)Nc5ccc(S(C)(=O)=O)cc5)CC4)c3c2cc1OC [Compound 1-115] has what recorded IC50?
75.7

Item COc1cc2[nH]c3ncnc(N4CCN(C(=S)Nc5ccc(NC(=O)C6CC6)cc5)CC4)c3c2cc1OC [Compound 1-34] has what recorded IC50?
21.9

Item COc1cc2[nH]c3ncnc(N4CCN(C(=S)Nc5ccc(S(=O)(=O)NC(C)=O)cc5)CC4)c3c2cc1OC [Compound 1-2] has what recorded IC50?
164

Item CC(=O)NS(=O)(=O)c1ccc(NC(=S)N2CCN(c3ncnc4[nH]c5cc(F)ccc5c34)CC2)cc1 [Compound 1-4] has what recorded IC50?
160

Next molecule, IC50 to be filled in.
Item COc1cc2[nH]c3ncnc(N4CCN(C(=S)Nc5ccc(NC(C)=O)cc5)CC4)c3c2cc1OC [Compound 1-42] has what recorded IC50?
189

---

Test system: MDA-MB-231 breast carcinoma cells
Experiment: cell proliferation assay (Cell-Titer-Glo), MDA-MB-231
Type: cell-based
Conditions: Homo sapiens, Example 65, 96 hours, read-out: IC50 (reduce cell number to 50% of untreated controls)
quantity-name: IC50

Item CCc1nnc(NS(=O)(=O)c2ccc(NC(=S)N3CCN(c4ncnc5[nH]c6ccc(Cl)cc6c45)CC3)cc2)s1 has what recorded IC50?
10 µM

---
Item CC(=O)NS(=O)(=O)c1ccc(NC(=S)N2CCN(c3ncnc4[nH]c5cc(C(F)(F)F)c(Cl)cc5c34)CC2)cc1 has what recorded IC50?
20 µM

---

Test system: HT-29 (colon)
Test: in vitro cytotoxicity assay (Cell-Titer-Glo), HT-29
Type: cell-based
Details: Homo sapiens, HT-29; Table 10; 96 hours; read-out: IC50 HT-29 (inhibit cell growth to 50% of untreated)
quantity-name: pIC50
One number for each entry, as −log10 of the molar value.

Item CC(=O)NS(=O)(=O)c1ccc(NC(=S)N2CCN(c3ncnc4[nH]c5cc(C(F)(F)F)c(Cl)cc5c34)CC2)cc1 has what recorded pIC50?
4.83

---

Tested on: OVCAR-3 (ovary)
Test: in vitro cytotoxicity assay (Cell-Titer-Glo), OVCAR-3
Type: cell-based
Conditions: Homo sapiens, OVCAR-3, 96 h; Example 20; 4 days; read-out: Cell-based IC50 values OVCAR-3
quantity-name: IC50 (µM)
One number for each entry, in µM.

Form field: IC50 recorded for COc1cc2[nH]c3ncnc(N4CCN(C(=S)Nc5ccc(NC(C)=O)cc5)CC4)c3c2cc1OC with OVCAR-3 (ovary) (enter value)
85.1

Form field: IC50 recorded for COc1cc2[nH]c3ncnc(N4CCN(C(=S)Nc5ccc(S(C)(=O)=O)cc5)CC4)c3c2cc1OC with OVCAR-3 (ovary) (enter value)
175

Form field: IC50 recorded for COc1cc2[nH]c3ncnc(N4CCN(C(=S)Nc5ccc(NC(=O)C6CC6)cc5)CC4)c3c2cc1OC with OVCAR-3 (ovary) (enter value)
111

Next molecule, IC50 to be filled in.
Form field: IC50 recorded for CC(=O)NS(=O)(=O)c1ccc(NC(=S)N2CCN(c3ncnc4[nH]c5cc(F)ccc5c34)CC2)cc1 with OVCAR-3 (ovary) (enter value)
79
